Data origin, for the record: BindingDB's records for doi:10.1021/jm049465g

assay: Inhibition of quinpirole stimulation of mitogenesis at human dopamine D2 receptors expressed in Chinese hamster ovary cells
property-label: EC50 (µM)
Report the figure in µM without appending any unit label.

Reference set, count: 2
[
  {
    "smiles-code": "O=C(NC/C=C/CN1CCN(c2cccc(Cl)c2Cl)CC1)c1ccc(I)cc1",
    "unit-abbrev": "µM",
    "recorded-result": 0.162
  },
  {
    "smiles-code": "O=C(NC/C=C/CN1CCN(c2cccc(Cl)c2Cl)CC1)c1ccc([N+](=O)[O-])cc1",
    "unit-abbrev": "µM",
    "recorded-result": 0.0138
  }
]

In: Please report EC50 for the following molecule: "COc1ccc(C(=O)NC/C=C/CN2CCN(c3cccc(Cl)c3Cl)CC2)cc1"
Out: 0.0618
